- testedSystem: SIX1-Q177R homeodomain (human, UniProt Q15475 108-198, Q177R)
- Sequence: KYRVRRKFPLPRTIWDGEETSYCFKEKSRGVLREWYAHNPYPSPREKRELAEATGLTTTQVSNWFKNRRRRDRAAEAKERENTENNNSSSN
- assayRemarks: universal protein binding microarray; Universal all-10-mer PBM (8x60K, AMADID 030236), 300 nM GST-tagged protein, Alexa Fluor 488 anti-GST; buffer, salt, pH and temperature not stated (as in Berger); high values mean tight binding
- conditionDescription: protein: ivt; tags: N-terminal GST; dsDNA, one strand shown
In all, about 33,000 sequences were measured (“e-score”: median about -0.05, highest 2% from about 0.38 on). For the sample, the highest values were picked, then their nearest neighbours and some sequences at random.
quantityKind: binding signal (E-score)
# value in E-score; strip the unit string

Record excerpt, results attached:
Ask: # return binding signal for ACGGAGTC , test system: SIX1-Q177R homeodomain (human, UniProt Q15475 108-198, Q177R)
Reply: 0.181

Ask: Please report the measured binding signal for ACGGACAC tested on SIX1-Q177R homeodomain (human, UniProt Q15475 108-198, Q177R).
Reply: 0.41

Ask: Provide binding signal, tested on SIX1-Q177R homeodomain (human, UniProt Q15475 108-198, Q177R), for CCGACCAG .
Reply: 0.161

Ask: Using SIX1-Q177R homeodomain (human, UniProt Q15475 108-198, Q177R) as the test system, report measured binding signal of CACACCGC .
Reply: 0.412

***
Ask: Report value only: binding signal, SIX1-Q177R homeodomain (human, UniProt Q15475 108-198, Q177R), AACACTGG
Reply: 0.373

Ask: Report binding signal from SIX1-Q177R homeodomain (human, UniProt Q15475 108-198, Q177R) testing of AATAGCAC
Reply: 0.202

Ask: Would you please give the reported binding signal of AGGTGCGG with SIX1-Q177R homeodomain (human, UniProt Q15475 108-198, Q177R)?
Reply: 0.187

Ask: Provide the reported binding signal (system: SIX1-Q177R homeodomain (human, UniProt Q15475 108-198, Q177R)) for ACACTTGG
Reply: 0.329

Ask: // output binding signal; input CCGGTGTC ; system SIX1-Q177R homeodomain (human, UniProt Q15475 108-198, Q177R)
Reply: 0.489

Ask: Fill in binding signal for AGGTGTAC tested with SIX1-Q177R homeodomain (human, UniProt Q15475 108-198, Q177R).
Reply: 0.47

Ask: Write down measured binding signal (SIX1-Q177R homeodomain (human, UniProt Q15475 108-198, Q177R)) for this sequence. ACACATAC
Reply: 0.18

Ask: Give binding signal for this entry on SIX1-Q177R homeodomain (human, UniProt Q15475 108-198, Q177R): CGGGCACA
Reply: 0.199

Ask: Identify measured binding signal obtained with SIX1-Q177R homeodomain (human, UniProt Q15475 108-198, Q177R) for ACATACCC .
Reply: 0.17

Ask: Report binding signal on SIX1-Q177R homeodomain (human, UniProt Q15475 108-198, Q177R) for this entry: CACACCGG
Reply: 0.418

Ask: State measured binding signal of the sequence GTGTACGA with SIX1-Q177R homeodomain (human, UniProt Q15475 108-198, Q177R).
Reply: 0.439

Ask: Give reported binding signal for CGGCGTAC (SIX1-Q177R homeodomain (human, UniProt Q15475 108-198, Q177R))
Reply: 0.209

====

Below, each entry is listed alongside its reported binding signal.
- testedSystem: SIX1-Q177R homeodomain (human, UniProt Q15475 108-198, Q177R)
- Sequence: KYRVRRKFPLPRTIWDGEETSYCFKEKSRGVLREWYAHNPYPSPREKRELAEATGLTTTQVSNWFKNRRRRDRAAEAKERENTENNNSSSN
- assayRemarks: universal protein binding microarray; Universal all-10-mer PBM (8x60K, AMADID 030236), 300 nM GST-tagged protein, Alexa Fluor 488 anti-GST; buffer, salt, pH and temperature not stated (as in Berger); high values mean tight binding
- conditionDescription: protein: ivt; tags: N-terminal GST; dsDNA, one strand shown
Whole data set: some 33,000 sequences, median “e-score” near -0.05, cut for the highest 2% near 0.38. This excerpt belongs to a sample that is enriched for the highest values.

Ask: Query binding signal for CCACTCGC
Reply: 0.222 E-score

Ask: Answer with the recorded binding signal of CACCACCA only.
Reply: 0.329 E-score

New cases:
Ask: Fill in binding signal for record CTACCCCC
Reply: 0.268 E-score

Ask: Give the reported value of binding signal for this record: CTGCACCC
Reply: 0.209 E-score

Ask: Respond only with binding signal recorded for GTACACCA
Reply: 0.485 E-score

====

- testedSystem: SIX1-Q177R homeodomain (human, UniProt Q15475 108-198, Q177R)
- Sequence: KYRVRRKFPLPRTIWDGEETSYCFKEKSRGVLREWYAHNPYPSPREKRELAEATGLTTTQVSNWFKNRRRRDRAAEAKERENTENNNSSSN
- assayRemarks: universal protein binding microarray; Universal all-10-mer PBM (8x60K, AMADID 030236), 300 nM GST-tagged protein, Alexa Fluor 488 anti-GST; buffer, salt, pH and temperature not stated (as in Berger); high values mean tight binding
- conditionDescription: protein: ivt; tags: N-terminal GST; dsDNA, one strand shown
In all, about 33,000 sequences were measured (“e-score”: median about -0.05, highest 2% from about 0.38 on). Only a selection was taken, and the highest values are over-represented in it overall.
quantityKind: binding signal (E-score)
The reply should contain only the number, in E-score.

Solved entries (count: 8):
Ask: Let me know recorded binding signal for ACCTCCGA , thanks.
Reply: 0.172

Ask: Fill in binding signal for record CTGACGCC
Reply: 0.185

Ask: For the sequence AGGACACC , give its reported binding signal.
Reply: 0.484

Ask: Specify reported binding signal for the sequence shown: AGGTGACA
Reply: 0.251

Ask: Indicate its recorded binding signal; the sequence in question is CGCACACC
Reply: 0.395

Ask: Give me measured binding signal, please, for this sequence: GGGACACC
Reply: 0.478

Ask: Please give the documented binding signal of CACTACAC
Reply: 0.443

Ask: Read the entry CACACATG and write its reported binding signal.
Reply: 0.165

More entries:
Ask: Using the record for GGGATCGA , state its measured binding signal.
Reply: 0.257

Ask: Name the recorded binding signal of the sequence listed here: AACACGTG
Reply: 0.371

====

- testedSystem: SIX1-Q177R homeodomain (human, UniProt Q15475 108-198, Q177R)
- Sequence: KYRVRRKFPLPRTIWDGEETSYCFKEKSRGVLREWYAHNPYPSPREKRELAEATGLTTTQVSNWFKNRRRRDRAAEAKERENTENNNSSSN
- assayRemarks: universal protein binding microarray; Universal all-10-mer PBM (8x60K, AMADID 030236), 300 nM GST-tagged protein, Alexa Fluor 488 anti-GST; buffer, salt, pH and temperature not stated (as in Berger); high values mean tight binding
- conditionDescription: protein: ivt; tags: N-terminal GST; dsDNA, one strand shown
Over roughly 33,000 sequences, “e-score” has its median near -0.05; the highest 2% begin near 0.38. The sample holds the highest values, similar sequences and a random draw of the others, so the mix is not that of the screen.
Mark Fulfilled only when binding signal stays strictly below 0.2 E-score. Values equal to the cut-off are Not fulfilled.

The following sequences have reported results that may help.
Ask: Consider AAGGTGTA . Does its binding signal lie strictly below 0.2 E-score?
Reply: Not fulfilled

Ask: Does GAGGTGCA have binding signal strictly under 0.2 E-score?
Reply: Fulfilled

Ask: hey, is binding signal for GAGTCATA lower than 0.2 E-score or not?
Reply: Fulfilled

Ask: Dear colleague, could you confirm whether binding signal of GTGTCGAA falls below 0.2 E-score? Thanks.
Reply: Not fulfilled

Next:
Ask: binding signal under 0.2 E-score? Item: CCCCCATA
Reply: Fulfilled

Ask: Quick check: binding signal of AAGGTGTG under 0.2 E-score?
Reply: Not fulfilled

Ask: Dear reviewer, please state whether CAGGTGTA has binding signal strictly beneath 0.2 E-score.
Reply: Not fulfilled

Ask: Please indicate whether the reported binding signal of CAGAGCAC is strictly below 0.2 E-score.
Reply: Fulfilled

Ask: Hi there! Is binding signal for AAGGTGGT below 0.2 E-score, do you know?
Reply: Fulfilled

Ask: In the record for AAGGATAC , is binding signal less than 0.2 E-score?
Reply: Not fulfilled
